System: Leptosphaeria nodorum—LEPTNO
Test: Glume Blotch of Wheat, in vivo whole plant, 24 Hour Protectant
Settings: Leptosphaeria, 24 h, read-out: LEPTNO in vivo 1 Day Protectant
Could you please report measured pest or weed control at 100 ppm for the items listed next?

Form: item COc1ccnc(C(=O)NC2CCN(Cc3cccc(C(F)(F)F)c3)CC2)c1O.O=C(O)/C=C\C(=O)O.O=C(O)/C=C\C(=O)O ; test system Leptosphaeria nodorum—LEPTNO; pest or weed control at 100 ppm: < 25%

Form: item COc1ccnc(C(=O)NC2CCN(Cc3ccccc3)CC2)c1O.O=C(O)/C=C\C(=O)O ; test system Leptosphaeria nodorum—LEPTNO; pest or weed control at 100 ppm: < 25%

Form: item Br.COc1ccnc(C(=O)NC2C[C@@H](Cc3ccccc3)O[C@@H](C)C2)c1O (stereo partly shown) ; test system Leptosphaeria nodorum—LEPTNO; pest or weed control at 100 ppm: 25 to 74%

Form: item COc1ccnc(C(=O)N[C@H]2COC(=O)[C@H](Cc3ccccc3)[C@@H](OC(=O)Cc3ccccc3)[C@H](C)OC2=O)c1O ; test system Leptosphaeria nodorum—LEPTNO; pest or weed control at 100 ppm: 25 to 74%

----------
Could you please report measured melting point for the items listed next?

Lookup result for COc1ccnc(C(=O)NC2COC(=O)CC3(CCCCC3)CC(=O)OC2)c1O ; measured melting point: 107 to 108 °C

Lookup result for CSc1ccnc(C(=O)Nc2ccc(Oc3cccc(C(F)(F)F)c3)cc2)c1O ; measured melting point: 129 to 132 °C

Lookup result for Cc1ccnc(C(=O)NC2COC(=O)[C@H](Cc3ccccc3)[C@@H](OC(=O)C(C)C)[C@H](C)OC2=O)c1O (some centres unmarked) ; measured melting point: 122 to 134 °C

Lookup result for CC1(C)CC(NC(=O)c2cc(O)cnc2O)CC(C)(C)C1 ; measured melting point: 320 to 327 °C

Lookup result for C=C1COC(=O)[C@@H](NC(=O)c2nccc(OC)c2OC(C)=O)COC(=O)C1 ; measured melting point: 163 to 164 °C

Lookup result for Cc1ccnc(C(=O)Nc2ccc(Oc3cccc(C(F)(F)F)c3)cc2)c1O ; measured melting point: 105 to 107 °C

Lookup result for Cc1nc(O)c(C(=O)N[C@H]2COC(=O)[C@H](Cc3ccccc3)[C@@H](OC(=O)C(C)C)[C@H](C)OC2=O)nc1C ; measured melting point: 80 to 83 °C

Lookup result for COc1ccnc(C(=O)Nc2ccc(OC3CC(C)(C)CC(C)(C)C3)cc2)c1O ; measured melting point: 141 to 142 °C

Lookup result for COc1ccnc(C(=O)Nc2cccc(Sc3ccc(C(F)(F)F)cc3)c2)c1O ; measured melting point: 133 to 134 °C

Lookup result for COc1ccnc(C(=O)Nc2cccc(NC(=O)c3ccc(C(F)(F)F)cc3)c2)c1O ; measured melting point: 240 to 242 °C

Lookup result for Cc1ncc(C(=O)NC2CC(C)(C)CC(C)(C)C2)c(O)n1 ; measured melting point: > 300 °C

Lookup result for COc1ccnc(C(=O)N[C@H]2C(O)[C@@H]3CC[C@H]2[C@@H]2CCCC[C@@H]23)c1O (some centres unmarked) ; measured melting point: 143 to 160 °C (dec.)

Lookup result for CC(NC(=O)c1nc(Br)ccc1O)c1ccc(Cl)cc1 (centres unmarked) ; measured melting point: 106 to 107 °C

Lookup result for COc1ccnc(C(=O)Nc2ccc(Cc3cccc(C(F)(F)F)c3)cc2)c1O ; measured melting point: 126 to 127 °C

Lookup result for O=C(Oc1cccnc1C(=O)NC1CCC(OC(=O)c2ccccc2)CC1)c1ccccc1 (centres unmarked) ; measured melting point: 174 to 177 °C

Lookup result for COc1ccnc(C(=O)NC2c3ccccc3CC2(C)C)c1O (centres unmarked) ; measured melting point: 122 to 128 °C

Lookup result for O=C(NCc1ccccc1Cl)c1ncccc1O ; measured melting point: 97 to 99 °C
